Below, pIC50 values reported for Protein arginine N-methyltransferase 5 (Homo sapiens, UniProt O14744) across several publications.
pIC50: −log10 of the molar value.

The following molecules have reported results that may help.
N#Cc1ccc(Nc2ncnc(Nc3ccc(C(=N)N)cc3)c2[N+](=O)[O-])cc1 < 4.00
Cc1cc(C)cc(Oc2ccc(CNC(=O)[C@H](C)N)cc2C)c1 < 4.00
C=CC(=O)NCc1cc(C(=O)NCc2c(SC)cc(C)[nH]c2=O)c(C)c(N(CC)C2CCOCC2)c1 < 5.00

Switching to the query record.
Q. Provide one value: measured pIC50 of Cl.Nc1cccc2c(S(=O)(=O)NCc3ccccc3)cccc12
A. < 4.70
